- System: Mouse 2C CD8+ T cell-vesicle binding, flow cytometry
- experiment-notes: modulators of CD8 T cell-vesicle binding, dose response, powder samples, mouse 2C CD8+ cells (AID 504565)
- particulars: CD8+ 90th percentile fluorescence
Response field class: string, computed from recorded EC50 by ranges low bracket = under 8 µM, middle bracket = from 8 µM up to 20 µM, high bracket = 20 µM and over

[[record]]
compound = "O=C(c1ccc(N2C(=O)C3CC=C(Cl)CC3C2=O)cc1)N1CCCCC1 (centres undefined)"
tested_system = "Mouse 2C CD8+ T cell-vesicle binding, flow cytometry"
group_label = "high bracket"

[[record]]
compound = "CCOc1ccc(-c2nc(N)ncc2-c2ccccc2)c(O)c1"
tested_system = "Mouse 2C CD8+ T cell-vesicle binding, flow cytometry"
group_label = "low bracket"

[[record]]
compound = "CCN(CC)S(=O)(=O)c1ccc(Cl)c(NC(=O)COC(=O)C2CCCCC2)c1"
tested_system = "Mouse 2C CD8+ T cell-vesicle binding, flow cytometry"
group_label = "high bracket"

[[record]]
compound = "CCOC(=O)C1CCCN(S(=O)(=O)c2ccc(F)c(C(=O)Nc3ccc(F)c(F)c3)c2)C1 (centres undefined)"
tested_system = "Mouse 2C CD8+ T cell-vesicle binding, flow cytometry"
group_label = "high bracket"

[[record]]
compound = "Cc1ccccc1C(=O)N1CCC(C(=O)Nc2ccc(C)c(S(=O)(=O)N3CCCCC3)c2)CC1"
tested_system = "Mouse 2C CD8+ T cell-vesicle binding, flow cytometry"
group_label = "middle bracket"

[[record]]
compound = "Cc1cc(Cl)c(OCCCSc2nc(C)cc(=O)[nH]2)c(Br)c1"
tested_system = "Mouse 2C CD8+ T cell-vesicle binding, flow cytometry"
group_label = "high bracket"

[[record]]
compound = "COCc1c(C(=O)Nc2cccc(S(=O)(=O)N3CCCCC3)c2)oc2ccccc12"
tested_system = "Mouse 2C CD8+ T cell-vesicle binding, flow cytometry"
group_label = "low bracket"

[[record]]
compound = "CCOCC(=O)Nc1ccc(S(=O)(=O)N2CCC(c3nc4ccccc4[nH]3)CC2)cc1"
tested_system = "Mouse 2C CD8+ T cell-vesicle binding, flow cytometry"
group_label = "low bracket"

[[record]]
compound = "COc1ccc(S(=O)(=O)N2CCCC2C(=O)Nc2ccc(C(C)=O)cc2)cc1 (centres undefined)"
tested_system = "Mouse 2C CD8+ T cell-vesicle binding, flow cytometry"
group_label = "high bracket"

[[record]]
compound = "O=C(O)C1CCC(Cn2c(SCc3cc(=O)n4cc(Cl)ccc4n3)nc3ccsc3c2=O)CC1 (centres undefined)"
tested_system = "Mouse 2C CD8+ T cell-vesicle binding, flow cytometry"
group_label = "high bracket"

[[record]]
compound = "CCOC(=O)c1ccc(S(=O)(=O)N2CCN(C3CCCC3)CC2)cc1"
tested_system = "Mouse 2C CD8+ T cell-vesicle binding, flow cytometry"
group_label = "middle bracket"

[[record]]
compound = "O=C(NCC1CCCCC1)c1ccc(Cl)c(S(=O)(=O)N2CCOCC2)c1"
tested_system = "Mouse 2C CD8+ T cell-vesicle binding, flow cytometry"
group_label = "high bracket"

[[record]]
compound = "O=C(COC(=O)C12CC3CC(CC(Br)(C3)C1)C2)Nc1cccc(S(=O)(=O)N2CCOCC2)c1"
tested_system = "Mouse 2C CD8+ T cell-vesicle binding, flow cytometry"
group_label = "middle bracket"

